PROCEDURE SUMMARY: Inhibition of SERCA1 in rat INS-1E cells assessed as reduction in cell viability incubated for 24 hrs by MTT assay
MEASURED ATTRIBUTE: IC50 (µM)
Numeric answer only, unit µM assumed.

Consider the following illustrative entries.
CC(C)=CCc1c(-c2ccc(O)cc2O)oc2c3c(cc(O)c2c1=O)OC(C)(C)C=C3 | 28.7
CC1(C)Oc2cc3oc(-c4cc(O)cc(O)c4)cc3cc2CC1O (stereo not given) | 109
CC(C)(O)C1Cc2cc3cc(-c4cc(O)cc(O)c4)oc3cc2O1 (stereo not given) | 111
Cc1cc2c3c(c1)-c1c(O)cc(-c4cc5ccc(O)cc5o4)cc1O[C@@]3(c1ccc(O)cc1O)Oc1cc(O)ccc1-2 | 18.2

State the recorded IC50 for this entry: "COc1cc(O)c([C@@H]2CC(=O)c3c(O)cc(O)cc3O2)cc1C/C=C(\C)CCC=C(C)C"
64.8
